# target.under.test: Carbonic anhydrase 1 (Homo sapiens, UniProt P00915)
# Sequence (P00915 whole entry): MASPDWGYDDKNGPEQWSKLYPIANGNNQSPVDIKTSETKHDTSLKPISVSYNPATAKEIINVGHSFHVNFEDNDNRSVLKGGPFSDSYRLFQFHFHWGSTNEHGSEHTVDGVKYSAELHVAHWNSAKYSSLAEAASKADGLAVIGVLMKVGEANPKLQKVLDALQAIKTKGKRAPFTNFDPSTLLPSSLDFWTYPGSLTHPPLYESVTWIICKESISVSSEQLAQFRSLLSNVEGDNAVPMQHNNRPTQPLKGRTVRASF
# test.description: Inhibition of human CA1 preincubated for 15 mins by phenol red dye based stopped flow CO2 hydration assay
pKi: −log10 of the molar value.
Label rule, in plain words: pKi of 6 and up is met, under 6 is not met.

stdin: # check: pKi of C/C(=N\NC(=O)c1ccc(S(N)(=O)=O)cc1)c1cc2cc(Br)ccc2oc1=O is greater than or equal to 6
stdout: met

stdin: Does pKi meet or surpass 6 for Cc1ccc(S(=O)(=O)C/C(=N\Nc2ccc(S(N)(=O)=O)cc2)c2cc3cc(Br)ccc3oc2=O)cc1 ?
stdout: not met

stdin: Check if pKi >= 6 (inclusive). Item: NS(=O)(=O)c1ccc(N/N=C(\CS(=O)(=O)c2ccccc2)c2cc3cc(Br)ccc3oc2=O)cc1
stdout: not met

stdin: API: above_or_equal(metric=pKi, cutoff=6) for item Cc1ccc(S(=O)(=O)C/C(=N\Nc2ccc(S(N)(=O)=O)cc2)c2cc3ccccc3oc2=O)cc1
stdout: not met

stdin: Quick check, pKi >= 6? NS(=O)(=O)c1ccc(C(=O)N/N=C(\CS(=O)(=O)c2ccccc2)c2cc3ccccc3oc2=O)cc1
stdout: not met

stdin: Textbook exercise: given the entry C/C(=N\NC(=O)c1ccc(S(N)(=O)=O)cc1)c1cc2ccccc2oc1=O , state whether its pKi is greater than or equal to 6.
stdout: met

---

# target.under.test: Carbonic anhydrase 12 (Homo sapiens)
# Sequence (O43570 whole entry): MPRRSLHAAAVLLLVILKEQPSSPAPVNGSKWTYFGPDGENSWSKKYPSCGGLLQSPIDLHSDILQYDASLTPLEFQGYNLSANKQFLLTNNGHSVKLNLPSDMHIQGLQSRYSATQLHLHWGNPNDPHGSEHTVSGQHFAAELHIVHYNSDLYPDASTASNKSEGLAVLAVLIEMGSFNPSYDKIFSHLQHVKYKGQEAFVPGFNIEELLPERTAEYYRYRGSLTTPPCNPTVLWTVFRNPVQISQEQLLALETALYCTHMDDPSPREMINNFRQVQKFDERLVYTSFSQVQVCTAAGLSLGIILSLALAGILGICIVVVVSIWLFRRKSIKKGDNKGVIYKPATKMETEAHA
measurement.type: Ki (nM)
Numbers only; they are read as nM.

Data point: O=C(CS(=O)(=O)c1ccccc1)c1cc2ccccc2oc1=O ; Ki = 60.1

---

This section presents compounds with their documented pKi values.
# target.under.test: Carbonic anhydrase 9 (Homo sapiens, UniProt Q16790)
# test.description: Inhibition of human CA9 preincubated for 15 mins by phenol red dye based stopped flow CO2 hydration assay
// pKi is dimensionless: -log10 of concentration (M)

The cases that follow already have their pKi on record.
pKi for C/C(=N\NC(=O)c1ccc(S(N)(=O)=O)cc1)c1cc2cc(Br)ccc2oc1=O is 7.70

Summary for this compound, Cc1ccc(S(=O)(=O)C/C(=N\NC(=O)c2ccc(S(N)(=O)=O)cc2)c2cc3ccccc3oc2=O)cc1 : pKi is 7.38

In plain terms, NS(=O)(=O)c1ccc(C(=O)N/N=C(\CS(=O)(=O)c2ccccc2)c2cc3ccccc3oc2=O)cc1 has a documented pKi of 7.73

Sure, the documented pKi for NS(=O)(=O)c1ccc(N/N=C(\CS(=O)(=O)c2ccccc2)c2cc3ccccc3oc2=O)cc1 is 7.05

pKi recorded for this compound, C/C(=N\Nc1ccc(S(N)(=O)=O)cc1)c1cc2ccccc2oc1=O , is 7.36

Continuing:
Cc1ccc(S(=O)(=O)C/C(=N\Nc2ccc(S(N)(=O)=O)cc2)c2cc3ccccc3oc2=O)cc1 has a reported pKi of 7.12

// field: pKi; key: C/C(=N\NC(=O)c1ccc(S(N)(=O)=O)cc1)c1cc2ccccc2oc1=O ; value = 7.50

Record summary for NS(=O)(=O)c1ccc(N/N=C(\CS(=O)(=O)c2ccccc2)c2cc3cc(Br)ccc3oc2=O)cc1 : reported pKi = 7.20

In plain terms, C/C(=N\Nc1ccc(S(N)(=O)=O)cc1)c1cc2cc(Br)ccc2oc1=O has a documented pKi of 7.62
